Origin of measurements: the supplement of paper PMC11908140

B1: library; numbered along this chain (parent)
chain: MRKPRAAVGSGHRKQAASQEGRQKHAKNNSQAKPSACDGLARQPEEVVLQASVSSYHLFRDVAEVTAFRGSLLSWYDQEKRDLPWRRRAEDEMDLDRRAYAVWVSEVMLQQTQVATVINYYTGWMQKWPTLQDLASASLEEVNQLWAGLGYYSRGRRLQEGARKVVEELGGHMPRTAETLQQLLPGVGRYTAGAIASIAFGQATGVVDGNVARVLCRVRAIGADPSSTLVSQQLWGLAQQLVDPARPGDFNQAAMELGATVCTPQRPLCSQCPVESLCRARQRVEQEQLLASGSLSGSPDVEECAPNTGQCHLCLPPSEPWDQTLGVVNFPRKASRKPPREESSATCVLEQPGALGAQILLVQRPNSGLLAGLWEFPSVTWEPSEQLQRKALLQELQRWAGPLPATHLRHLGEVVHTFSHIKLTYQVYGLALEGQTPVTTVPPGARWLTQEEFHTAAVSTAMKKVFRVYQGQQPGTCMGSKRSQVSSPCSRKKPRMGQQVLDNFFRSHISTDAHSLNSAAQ

Variants of: B1
Assay: 8OG:A repair function score (normalized; synonymous = 0, nonsense = -1) (normalized log-likelihood score); higher = more repair activity (WT-like);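 also: cells sorted at 72 h after reporter transfection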
Conditions: with 8OG:A DNA repair reporter (GFP) in HEK-293 MUTYH KO cells
Please respond with reported 8OG:A repair function score for every item in the list.
One number for each entry.

A137I	-0.286

For every record below, what is its 8OG:A repair function score?
1. N503S
2. L183I

Reply |
1: -0.019; 2: -0.112
